Test system: K4 kissing-loop RNA reporter;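 note: bound reporter read as fluorescence of individual clusters on recovered sequencing chips by microscopy, with normalized cluster intensities fitted with a binding model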
Assay: apparent KD of K4 kissing-loop reporter; higher = weaker reporter binding
Settings: Eterna round: R107; input ligand: tryptophan 2.4 mM
Measured apparent KD of K4 kissing-loop reporter, listed per entry for reference.
Your answer is read as µM, so omit the unit and give the number.

Below, 6 sequences whose answers are already recorded.
GUGCGGUGGAGGUUACCGCUAUUCUGAGAAGGAGCGCAGAUGACUGCAGGUAGGUCGCUUAGAGCUUGCAGUGAUGUUGCAAGUU [Berienza]: 0.2
CUGCCGUUUACAGAUACCAGACUAAUAACGGCAGCACAGAAUGUGAGUGAUGUUCGCAUAGUCCCUUGGCAGCUGUAUAACAGUA [Theo B Ex t3]: 0.191
CGUUGUGAUGCUUGUGCUCAUACCGGAGAUACCAGUACCAUCACUUACCCUUGGCAGCUCAGUAAAGACAAGUGAUGUUUGUCAC [theeternabot_sameState_KL_Theo_A_38]: 0.502
CACUUACGUAGUGAUGUUACGAUCUCUGAUACCAGACAACUCUAAGUCCCUUGGCAGCAGUCAUUUUGCUUAGUAUUUACUCAAA [JR_ExcTheophyA_Sub016]: 0.512
UGCUGUCAAUAAGAUACCAGUUGGACUGAGUGAUGUUCAUCCAUUAUAUCUAUUCUGCUUAACCCUUGGCAGCUUGAUGACGUUU [theeternabot_exclusion_KL_Theo_B_6]: 0.182
GUACGCUCUCGAGUGAUGUUCGAUAAUCGCGAGGAUAUCGCUUUUGCGAGAAGGCGCGGAAUGAGGAAACUCGUUCUGAGUGUAC [FMN A 24]: 0.841

apparent KD of K4 kissing-loop reporter for CACUUACGUAGUGAUGUUACGAUCUCUGAUACCAGACAACUCUAAGUCCCUUGGCAGCAGUCAUUUUGCUUCAAAUUUACUCAAA [JR_ExcTheophyA_Sub013] ? 0.52

apparent KD of K4 kissing-loop reporter for CGGCGGAGUGAUGUUCCACCUACUGCGGAUACCAGCUUUGCCAAAGGCCCUUGGCAGCCGCACGGCUCAGUGAUGUUGGGUCGCG [Same State Theophylline A G11] ? 0.199

apparent KD of K4 kissing-loop reporter for AAAUUUAAUAUAUUUAAUUAAUUAAGUGAUACCAGACAUUAAUAAGUCCCUUGGCAGCGCAAUGCAGUGAUGUUGCUUAUAAUAA [#18 K4 Theophylline A Same State] ? 0.048

apparent KD of K4 kissing-loop reporter for CAGAACUUGUAUACAGGGCAUGCCAGAGAUACCAGUCAAAUGGAAGGCCCUUGGCAGCUCAGGCGAGUGAUGUUCGCAGGCUGAC [Exclusion Theophylline A GF 19] ? 0.133

apparent KD of K4 kissing-loop reporter for GCGCGUCAUGUCAGCGGUGACUUUGUCGAUACCAGCGCCGCAAGGCGCCCUUGGCAGCGACGCGCUGGAGUGAUGUUCCAGCGUG [#2 Exclusion - Theophylline A Attempt #12 (HarryS)] ? 0.126

Attribution: the supplement of paper PMC9170038
